TARGET_UNDER_TEST: XIAP-Caspase-9 in HEK293-XIAP-Caspase-9 cells (Homo sapiens, UniProt P98170)
Construct: FLAG; expressed in transfected cells
Sequence (P98170 whole entry): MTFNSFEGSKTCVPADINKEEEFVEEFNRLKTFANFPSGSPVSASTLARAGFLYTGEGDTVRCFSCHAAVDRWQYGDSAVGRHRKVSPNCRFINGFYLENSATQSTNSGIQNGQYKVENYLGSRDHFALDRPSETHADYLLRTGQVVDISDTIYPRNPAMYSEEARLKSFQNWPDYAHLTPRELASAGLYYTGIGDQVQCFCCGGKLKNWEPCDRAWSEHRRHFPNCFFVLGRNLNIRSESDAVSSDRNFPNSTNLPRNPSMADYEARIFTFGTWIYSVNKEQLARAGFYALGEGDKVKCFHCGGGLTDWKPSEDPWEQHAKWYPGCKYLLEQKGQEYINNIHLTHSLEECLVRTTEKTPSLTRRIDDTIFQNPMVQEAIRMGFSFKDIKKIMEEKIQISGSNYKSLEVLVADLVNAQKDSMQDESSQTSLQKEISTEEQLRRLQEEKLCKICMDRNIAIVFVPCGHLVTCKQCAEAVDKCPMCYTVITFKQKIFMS
ASSAY_TEXT: HEK293-XIAP-Caspase-9 immunoprecipitation (IP) MSD assay
Assay type: cell-based
APPLIED_CONDITIONS: compound 2 h at 37° C.; read-out: HEK293-X-C9 IP
Description: […] EC50 values were determined from dose-response plots using nonlinear least-squares analysis.
Counter-ions that a name gives are not always drawn.
MEASUREMENT_KIND: EC50 (nM)
Numbers only, in nM.

Below: 2 compounds and their reported EC50.
# COMPOUND, EC50 / nM
records = [
    ("C[C@@H]1CN(CC(=O)N2CC(C)(C)c3cc(=O)n(Cc4ccc(F)cc4F)cc32)[C@@H](CN2C[C@H](C)OC[C@H]2C)CN1.Cl.Cl [Example 22, dihydrochloride]", 3.9),
    ("C[C@@H]1CN(CC(=O)N2CC(C)(C)c3c2cc(Cc2ccc(F)cc2)c(=O)n3C)[C@@H](CN2CCOC[C@H]2C)CN1 [Example 6, dihydrochloride]", 2),
]

Let us move to another entry and its EC50.
*Q* Kindly state the measured EC50 obtained for C[C@@H]1CN(CC(=O)N2CC(C)(C)c3[nH]c(=O)c(Cc4ccc(F)cc4F)cc32)[C@@H](CN2CCOC[C@H]2C)CN1 [Example 8, dihydrochloride] with XIAP-Caspase-9 in HEK293-XIAP-Caspase-9 cells (Homo sapiens, UniProt P98170).
*A* 5.4

---

System: EVSA-T (human breast carcinoma)
ASSAY_TEXT: Anti-proliferative activity, Alamar Blue assay, EVSA-T
Type: cell-based
APPLIED_CONDITIONS: 72 hours compound, read-out: EVSA-T prolif
MEASUREMENT_KIND: EC50 (nM)
Give bare numbers, in nM.

*Q* Reported EC50 for COC(CO)c1nc2c(cc1Cc1ccc(F)cc1)N(C(=O)CN1C[C@@H](C)NC[C@@H]1CN1[C@H](C)COC[C@H]1C)CC2(C)C (single isomer, unassigned) : what is it?
*A* 0.48

---

TARGET_UNDER_TEST: hERG ion channel (Homo sapiens, UniProt Q12809)
Construct: expressed in transfected cells; host or cells: CHO K1
Sequence (Q12809 whole entry): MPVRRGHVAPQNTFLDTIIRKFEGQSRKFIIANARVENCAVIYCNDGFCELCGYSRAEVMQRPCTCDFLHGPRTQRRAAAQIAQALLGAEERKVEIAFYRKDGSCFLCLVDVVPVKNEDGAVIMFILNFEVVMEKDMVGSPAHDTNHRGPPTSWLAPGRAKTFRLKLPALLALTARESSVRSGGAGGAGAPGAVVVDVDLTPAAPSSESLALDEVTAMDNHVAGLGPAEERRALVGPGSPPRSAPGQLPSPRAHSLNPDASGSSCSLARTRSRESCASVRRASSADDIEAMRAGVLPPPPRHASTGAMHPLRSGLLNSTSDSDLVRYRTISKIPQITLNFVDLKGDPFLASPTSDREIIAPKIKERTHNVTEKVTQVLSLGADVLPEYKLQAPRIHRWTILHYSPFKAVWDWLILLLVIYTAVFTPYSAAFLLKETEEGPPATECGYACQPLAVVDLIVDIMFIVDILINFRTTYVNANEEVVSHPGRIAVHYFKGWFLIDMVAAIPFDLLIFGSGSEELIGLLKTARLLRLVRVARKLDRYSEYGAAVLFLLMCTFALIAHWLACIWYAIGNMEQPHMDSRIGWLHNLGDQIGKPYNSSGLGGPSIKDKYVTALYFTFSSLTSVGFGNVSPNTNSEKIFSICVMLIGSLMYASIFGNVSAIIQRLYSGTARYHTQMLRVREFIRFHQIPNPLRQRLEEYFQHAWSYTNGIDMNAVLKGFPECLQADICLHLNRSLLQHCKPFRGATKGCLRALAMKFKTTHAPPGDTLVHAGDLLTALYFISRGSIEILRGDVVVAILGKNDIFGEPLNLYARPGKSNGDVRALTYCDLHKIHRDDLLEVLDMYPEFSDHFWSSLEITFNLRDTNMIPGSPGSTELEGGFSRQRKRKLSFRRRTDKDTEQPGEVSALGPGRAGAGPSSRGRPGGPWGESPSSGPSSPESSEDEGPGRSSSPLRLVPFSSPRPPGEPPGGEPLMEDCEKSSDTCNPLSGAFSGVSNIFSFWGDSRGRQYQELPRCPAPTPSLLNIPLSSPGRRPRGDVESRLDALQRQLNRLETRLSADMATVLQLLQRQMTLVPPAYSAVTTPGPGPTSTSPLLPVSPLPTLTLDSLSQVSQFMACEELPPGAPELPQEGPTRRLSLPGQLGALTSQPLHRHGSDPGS
ASSAY_TEXT: Population Patch Clamp (PPC) hERG assay in CHO K1 cells
Format: cell-based
APPLIED_CONDITIONS: @ 300 μM
Structures can show the parent of a compound that is named as a salt.
MEASUREMENT_KIND: hERG PPC (PI) (% @ 300)
One number for each entry, in % @ 300.

Below: 2 compounds and their reported hERG PPC (PI).
# COMPOUND, TARGET_UNDER_TEST, MEASUREMENT_KIND, READOUT_VALUE
records = [
    ("C[C@@H]1CN(CC(=O)N2CC(C)(C)c3cc(=O)n(Cc4ccc(F)cc4)cc32)[C@@H](CN2CCOC[C@H]2C)CN1 [Example 17, dihydrochloride]", "hERG ion channel (Homo sapiens, UniProt Q12809)", "hERG PPC (PI)", 59),
    ("C[C@@H]1CN(CC(=O)N2CC(C)(C)c3[nH]c(=O)c(Cc4ccc(F)cc4F)cc32)[C@@H](CN2CCOC[C@H]2C)CN1 [Example 8, dihydrochloride]", "hERG ion channel (Homo sapiens, UniProt Q12809)", "hERG PPC (PI)", 39),
]

List hERG PPC (PI) for every entry below, keeping the order given.
1. C[C@@H]1CN(CC(=O)N2CC(C)(C)c3c2cc(Cc2ccccc2F)c(=O)n3C)[C@@H](CN2CCOC[C@H]2C)CN1 [Example 9, dihydrochloride]
2. C[C@@H]1CN(CC(=O)N2CC(C)(C)c3[nH]c(=O)c(Cc4ccc(F)cc4)cc32)[C@@H](CN2CCOC[C@H]2C)CN1 [Example 5, dihydrochloride]

*A*
1: 50; 2: 42

---

TARGET_UNDER_TEST: hERG ion channel (Homo sapiens, UniProt Q12809)
ASSAY_TEXT: Population Patch Clamp (PPC) hERG assay in CHO K1 cells
APPLIED_CONDITIONS: CHO K1 cells stably transfected with hERG
pIC50: −log10 of the molar value. Counter-ions that a name gives are not always drawn.
Classification field: 1 (yes) = pIC50 at or over 4; 0 (no) = pIC50 under 4.

# COMPOUND, TARGET_UNDER_TEST, CATEGORY_LABEL
measured = [
    ("COC(CO)c1nc2c(cc1Cc1ccc(F)cc1)N(C(=O)CN1C[C@@H](C)NC[C@@H]1CN1[C@H](C)COC[C@H]1C)CC2(C)C (single isomer, unassigned)", "hERG ion channel (Homo sapiens, UniProt Q12809)", "0 (no)"),
    ("Cc1c2c(cn(Cc3ccc(F)cc3F)c1=O)N(C(=O)CN1C[C@@H](C)NC[C@@H]1CN1CCOC[C@H]1C)CC2(C)C [Example 31, dihydrochloride]", "hERG ion channel (Homo sapiens, UniProt Q12809)", "0 (no)"),
    ("CCCCc1cc2c(n(N)c1=O)C(C)(C)CN2C(=O)CN1C[C@@H](C)NC[C@@H]1CN1[C@H](C)COC[C@H]1C [Example 30, dihydrochloride]", "hERG ion channel (Homo sapiens, UniProt Q12809)", "0 (no)"),
    ("C[C@@H]1CN(CC(=O)N2CC(C)(C)c3nc(CO)c(Cc4ccc(F)cc4F)cc32)[C@@H](CN2CCOC[C@H]2C)CN1 [Example 11, dihydrochloride]", "hERG ion channel (Homo sapiens, UniProt Q12809)", "1 (yes)"),
]

*Q* Identify whether the reported pIC50 of the following compound is 4 or greater: CCCCc1cc2c(nc1CO)C(C)(C)CN2C(=O)CN1C[C@@H](C)NC[C@@H]1CN1[C@H](C)COC[C@H]1C [Example 34, dihydrochloride]
*A* 1 (yes)

---

TARGET_UNDER_TEST: XIAP-Caspase-9 in HEK293-XIAP-Caspase-9 cells (Homo sapiens, UniProt P98170)
Construct: FLAG
ASSAY_TEXT: HEK293-XIAP-Caspase-9 immunoprecipitation (IP) MSD assay
APPLIED_CONDITIONS: compound 2 h at 37° C.; read-out: HEK293-X-C9 IP
Counter-ions that a name gives are not always drawn.
Would you mind telling me the reported log10(EC50) of each entry?
Recorded EC50 (log10, nM)

# COMPOUND, log10(EC50)
records = [
    ("C[C@@H]1CN(CC(=O)N2CC(C)(C)c3nc(CO)c(Cc4ccc(F)cc4F)cc32)[C@@H](CN2CCOC[C@H]2C)CN1 [Example 11, dihydrochloride]", 0.04),
    ("CCCCc1cc2c([nH]c1=O)C(C)(C)CN2C(=O)CN1C[C@@H](C)NC[C@@H]1CN1[C@H](C)COC[C@H]1C [Example 32, dihydrochloride]", 0.18),
    ("C[C@@H]1CN(CC(=O)N2CC(C)(C)c3nc(C(O)CO)c(Cc4ccc(F)cc4)cc32)[C@@H](CN2CCOC[C@H]2C)CN1 (single isomer, unassigned) [Example 13, dihydrochloride]", 0.64),
]

List log10(EC50) for every entry below, keeping the order given.
1. C[C@@H]1CN(CC(=O)N2CC(C)(C)c3c2cc(Cc2ccc(F)cc2F)c(=O)n3C)[C@@H](CN2CCOC[C@H]2C)CN1 [Example 19, dihydrochloride]
2. CCCCc1cc2c(nc1CO)C(C)(C)CN2C(=O)CN1C[C@@H](C)NC[C@@H]1CN1[C@H](C)COC[C@H]1C [Example 34, dihydrochloride]

*A*
0.08
0.58

---

System: EVSA-T (human breast carcinoma)
ASSAY_TEXT: Anti-proliferative activity, Alamar Blue assay, EVSA-T
Assay type: cell-based
APPLIED_CONDITIONS: 72 hours compound, dihydrochloride, read-out: EVSA-T prolif
Structures can show the parent of a compound that is named as a salt.
MEASUREMENT_KIND: pEC50
Give bare numbers, as −log10 of the molar value.

*Q* Reported pEC50 for C[C@@H]1CN(CC(=O)N2CC(C)(C)c3nc(CO)c(Cc4cccc(F)c4)cc32)[C@@H](CN2CCOC[C@H]2C)CN1 [Example 15, dihydrochloride] : what is it?
*A* 8.11

---

TARGET_UNDER_TEST: hERG ion channel (Homo sapiens)
Construct: expressed in transfected cells; host or cells: CHO K1
ASSAY_TEXT: Population Patch Clamp (PPC) hERG assay in CHO K1 cells
Assay type: cell-based
APPLIED_CONDITIONS: @ 100 μM
Counter-ions that a name gives are not always drawn.
MEASUREMENT_KIND: hERG PPC (PI) (% @ 100)
Numbers only, in % @ 100.

Below: 5 molecules and their reported hERG PPC (PI).
# MOLECULE, TARGET_UNDER_TEST, hERG PPC (PI), % @ 100
rows = [
    ("C[C@@H]1CN(CC(=O)N2CC(C)(C)c3c2cc(Cc2ccc(F)cc2F)c(=O)n3C)[C@@H](CN2CCOC[C@H]2C)CN1 [Example 19, dihydrochloride]", "hERG ion channel (Homo sapiens)", 42),
    ("C[C@@H]1CN(CC(=O)N2CC(C)(C)c3c2cc(Cc2ccc(F)cc2)c(=O)n3N)[C@@H](CN2CCOC[C@H]2C)CN1 [Example 24, dihydrochloride]", "hERG ion channel (Homo sapiens)", 40),
    ("C[C@@H]1CN(CC(=O)N2CC(C)(C)c3c2cc(Cc2ccc(F)cc2F)c(=O)n3C)[C@@H](CN2[C@H](C)COC[C@H]2C)CN1 [Example 12, dihydrochloride]", "hERG ion channel (Homo sapiens)", 41),
    ("C[C@@H]1CN(CC(=O)N2CC(C)(C)c3cc(=O)n(Cc4ccc(F)cc4F)cc32)[C@@H](CN2[C@H](C)COC[C@H]2C)CN1 [Example 20, dihydrochloride]", "hERG ion channel (Homo sapiens)", 44),
    ("C[C@@H]1CN(CC(=O)N2CC(C)(C)c3nc(C(O)CO)c(Cc4ccc(F)cc4)cc32)[C@@H](CN2[C@H](C)COC[C@H]2C)CN1 (single isomer, unassigned) [Example 21, dihydrochloride]", "hERG ion channel (Homo sapiens)", 35),
]

List hERG PPC (PI) for every entry below, keeping the order given.
1. C[C@@H]1CN(CC(=O)N2CC(C)(C)c3cc(=O)n(Cc4ccc(F)cc4F)cc32)[C@@H](CN2C[C@H](C)OC[C@H]2C)CN1.Cl.Cl
2. C[C@@H]1CN(CC(=O)N2CC(C)(C)c3[nH]c(=O)c(Cc4ccc(F)cc4F)cc32)[C@@H](CN2[C@H](C)COC[C@H]2C)CN1 [Example 7, dihydrochloride]

*A*
1. 47
2. 33

List hERG PPC (PI) for every entry below, keeping the order given.
1. C[C@@H]1CN(CC(=O)N2CC(C)(C)c3nc(CO)c(Cc4cccc(F)c4)cc32)[C@@H](CN2CCOC[C@H]2C)CN1 [Example 15, dihydrochloride]
2. C[C@@H]1CN(CC(=O)N2CC(C)(C)c3c2cc(Cc2ccc(F)cc2F)c(=O)n3N)[C@@H](CN2CCOC[C@H]2C)CN1.Cl.Cl

*A*
1. 55
2. 63
